Source listed as ChEMBL document CHEMBL4414609.

- MEASUREMENT_TARGET: HNMT (histamine N-methyltransferase) (Homo sapiens, UniProt P50135)
- Sequence (P50135 whole entry): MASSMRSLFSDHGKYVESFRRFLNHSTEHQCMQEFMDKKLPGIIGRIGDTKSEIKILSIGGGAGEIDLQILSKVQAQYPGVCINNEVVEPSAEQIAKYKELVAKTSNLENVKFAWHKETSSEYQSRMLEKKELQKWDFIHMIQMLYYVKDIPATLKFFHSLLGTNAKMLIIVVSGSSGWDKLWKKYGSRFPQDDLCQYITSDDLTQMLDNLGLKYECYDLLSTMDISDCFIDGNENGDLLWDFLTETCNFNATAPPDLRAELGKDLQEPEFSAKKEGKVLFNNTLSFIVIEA
- METHOD_NOTES: Inhibition of human HNMT expressed in Escherichia coli at 10 uM assessed as reduction in SAH level using histamine as substrate in presence of SAM incubated for 15 mins by LC-MS/MS analysis relative to control
- CONDITION_LABEL: recombinant human HNMT expressed in Escherichia coli, probe histamine
REPORTED_ENDPOINT: inhibition at 0.25 h, 10 µM

• NC(=O)c1cccc(C#C[C@@H](CC[C@H](N)C(=O)O)C[C@H]2O[C@@H](n3cnc4c(N)ncnc43)[C@H](O)[C@@H]2O)c1 = 2%
